TESTED_TARGET: human PCSK9 (PCSK9 antigen, SEQ ID NO. 53) (human, UniProt A8T644 31-152; Q8NBP7 153-692, Biotin-labelled on amines in the MSD-SET and sorting experiments; positions not given.); note: unit not given here
ASSAY_COMMENT: cell-based or functional assay
PARAMETER: BODIPY-LDL uptake by HepG2 cells, fluorescence, 4.2 nM, replicate 1
Response field accepts a number only; no unit should be typed.

Observe how each entry below is paired with its result.
BINDER	READING
ADI-10085 (antibody, human IgG2, kappa, V domains shown, IgG) VH: QLQLQESGPGLVKPSETLSLTCTVSGGSIVSSSYYWAWIRQPPGKGLEWIGSINYKGSTYYNPSLKSRVTISVDTSKNQFSLKLSSVTAADTAVYYCARENSGVVPAAGPNWFGPWGQGTLVTVSS VL: EIVLTQSPATLSLSPGERATLSCRASQSVSSYLAWYQQKPGQAPRLLIYDASNRATGIPARFSGSGSGTDFTLTISSLEPEDFAVYYCQQRRNWFTFGGGTKVEIKR	0.423
ADI-10088 (antibody, human IgG2, kappa, V domains shown, IgG) VH: QLQLQESGPGLVKPSETLSLTCTVSGGSIGSSSYYWAWIRQPPGKGLEWIGSINYRGSTYYNPSLKSRVTISVDTSKNQFSLKLSSVTAADTAVYYCARENSGVVPAAGPNWFDPWGQGTLVTVSS VL: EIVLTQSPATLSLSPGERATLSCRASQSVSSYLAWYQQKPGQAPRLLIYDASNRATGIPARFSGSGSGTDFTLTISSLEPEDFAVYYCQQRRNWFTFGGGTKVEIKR	0.357
ADI-10089 (antibody, human IgG2, kappa, V domains shown, IgG) VH: QLQLQESGPGLVKPSETLSLTCTVSGGSIGSSSYYWTWIRQPPGKGLEWIGSINYRGSTYYNPSLKSRVTISVDTSKNQFSLKLSSVTAADTAVYYCARENSGVVPAAGPNWFDPWGQGTLVTVSS VL: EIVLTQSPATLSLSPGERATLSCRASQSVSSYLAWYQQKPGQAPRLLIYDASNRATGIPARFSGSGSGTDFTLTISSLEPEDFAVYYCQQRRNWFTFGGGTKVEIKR	0.38

Quick one: BODIPY-LDL uptake by HepG2 cells, fluorescence, 4.2 nM, replicate 1 for ADI-10087 (antibody, human IgG2, kappa, V domains shown, also called anti-PCSK antibody of the invention) VH: QLQLQESGPGLVKPSETLSLTCTVSGGSISSASYYWSWIRQPPGKGLEWIGSINYRGSTYYNPSLKSRVTISVDTSKNQFSLKLSSVTAADTAVYYCARENSGVVPAAGPNWFGPWGQGTLVTVSS VL: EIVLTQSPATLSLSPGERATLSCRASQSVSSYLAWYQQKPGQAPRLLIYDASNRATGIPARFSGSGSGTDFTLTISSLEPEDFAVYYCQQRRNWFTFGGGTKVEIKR ?
0.37
